measured_on: GalNAc(b1-4)GlcNAc(b1-2)Man(a1-3)[GalNAc(b1-4)GlcNAc(b1-2)Man(a1-6)]Man(b1-4)GlcNAc(b1-4)GlcNAc
measurement_protocol: glycan array binding signal (z-score within array); higher = stronger binding
particulars: glycan notation: IUPAC condensed, linker removed
Only a selection was taken, and the strongest signals are over-represented in it overall.
# binarize glycan array binding signal (z-score): threshold 0.004 inclusive, high side Yes, low side No

Prompt: Decide: is the reported value of glycan array binding signal (z-score) for Gal 8 (Homo sapiens) (protein) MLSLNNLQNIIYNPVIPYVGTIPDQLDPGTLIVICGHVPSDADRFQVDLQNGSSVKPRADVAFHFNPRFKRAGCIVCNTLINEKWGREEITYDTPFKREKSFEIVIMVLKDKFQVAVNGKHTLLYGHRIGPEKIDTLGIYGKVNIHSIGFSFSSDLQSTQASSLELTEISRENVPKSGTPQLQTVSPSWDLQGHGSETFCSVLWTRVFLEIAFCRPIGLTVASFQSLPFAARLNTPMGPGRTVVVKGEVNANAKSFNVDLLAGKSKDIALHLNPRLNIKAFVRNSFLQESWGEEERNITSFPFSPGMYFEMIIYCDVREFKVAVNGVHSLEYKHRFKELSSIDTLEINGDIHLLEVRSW equal to or greater than 0.004?
Response: No

Prompt: Decide: is the reported value of glycan array binding signal (z-score) for XTP3-B-MRH2 (Homo sapiens), Q96DZ1 (protein) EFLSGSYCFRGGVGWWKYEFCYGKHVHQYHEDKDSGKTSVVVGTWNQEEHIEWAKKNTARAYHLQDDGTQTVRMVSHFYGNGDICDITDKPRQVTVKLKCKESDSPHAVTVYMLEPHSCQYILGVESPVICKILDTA equal to or greater than 0.004?
Response: No

Prompt: Decide: is the reported value of glycan array binding signal (z-score) for GNL (Galanthus nivalis) (protein) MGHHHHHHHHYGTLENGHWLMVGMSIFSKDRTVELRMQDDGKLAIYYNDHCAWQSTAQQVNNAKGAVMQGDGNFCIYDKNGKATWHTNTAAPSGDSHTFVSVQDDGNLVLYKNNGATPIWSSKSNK equal to or greater than 0.004?
Response: No

Prompt: Decide: is the reported value of glycan array binding signal (z-score) for LTL (Lotus tetragonolobus), P19664 (protein) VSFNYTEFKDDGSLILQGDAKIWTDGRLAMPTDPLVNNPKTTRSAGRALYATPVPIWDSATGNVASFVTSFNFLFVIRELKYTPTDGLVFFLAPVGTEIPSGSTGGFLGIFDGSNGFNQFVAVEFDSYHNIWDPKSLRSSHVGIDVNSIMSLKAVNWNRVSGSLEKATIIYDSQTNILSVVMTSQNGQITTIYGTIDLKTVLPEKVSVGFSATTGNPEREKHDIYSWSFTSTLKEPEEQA equal to or greater than 0.004?
Response: Yes

Prompt: Decide: is the reported value of glycan array binding signal (z-score) for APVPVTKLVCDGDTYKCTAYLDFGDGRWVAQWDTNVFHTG [PhoSpL (Pholiota squarrosa)] equal to or greater than 0.004?
Response: Yes
